% of Wild-Type Signal, His311 values by entry
# test target: Gβ1γ2 His311Ala (Rattus norvegicus, UniProt P54311, H311A)
# Construct: made in house; host or cells: Sf9 insect cells (baculovirus)
# Sequence (P54311 whole entry H311A): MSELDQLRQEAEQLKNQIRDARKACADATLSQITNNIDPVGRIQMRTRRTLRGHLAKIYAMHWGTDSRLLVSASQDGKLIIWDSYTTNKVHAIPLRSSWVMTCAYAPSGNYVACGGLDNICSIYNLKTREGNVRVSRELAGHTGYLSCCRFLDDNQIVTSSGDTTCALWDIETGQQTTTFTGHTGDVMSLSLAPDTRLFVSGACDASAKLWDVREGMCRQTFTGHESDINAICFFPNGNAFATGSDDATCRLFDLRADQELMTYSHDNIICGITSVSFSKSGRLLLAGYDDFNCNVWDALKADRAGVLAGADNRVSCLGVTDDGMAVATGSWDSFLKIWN
# Sequence (P63212 2-68 partner limits assumed): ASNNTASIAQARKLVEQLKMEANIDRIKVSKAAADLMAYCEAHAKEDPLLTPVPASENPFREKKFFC
# test method notes: Phage ELISA, b-βγ mutant His311Ala
# Format: binding
# applied conditions: alanine-substituted His311, Indirect; mean ± SD
Write down the numeric answer in % and omit the unit.

Sample records with % of Wild-Type Signal, His311:
primary_sequence="SCEKRYGIEFCT [C4]" recorded_number=36.5
primary_sequence="WCPPKLEQWYDGCA [C2]" recorded_number=11.7
primary_sequence="SCEKRLGVRSCT [C5]" recorded_number=58.7
primary_sequence="SIGKALFILGYPDYD [3.14]" recorded_number=93.4
primary_sequence="SCGHGLKVQSTIGACA [3C]" recorded_number=30.5
primary_sequence="LCSKAYLLLGQTC [2F]" recorded_number=23.6

Entry SCKRTKAQILLAPCT [C1] has what % of Wild-Type Signal, His311?
3.0

Entry WCPPKAMTQLGIKAC [C14] has what % of Wild-Type Signal, His311?
6.1

* * *

# test target: Gβ1γ2 Met188Ala (Rattus norvegicus, UniProt P54311, M188A)
# Construct: made in house; host or cells: Sf9 insect cells (baculovirus)
# Sequence (P54311 whole entry M188A): as the sequence (P54311 whole entry H311A) above, with M188A, A311H counted along it
# Sequence (P63212 2-68 partner limits assumed): as the sequence (P63212 2-68 partner limits assumed) above
# test method notes: Phage ELISA, b-βγ mutant Met188Ala
# Type: binding
# applied conditions: alanine-substituted Met188, Shared; mean ± SD
measured metric: % of Wild-Type Signal, Met188 (%)
Write down the numeric answer in % and omit the unit.

Entry SCKRTKAQILLAPCT [C1] has what % of Wild-Type Signal, Met188?
4.0

* * *

# test target: Gβ1γ2 Leu117Ala (Rattus norvegicus, UniProt P54311, L117A)
# Construct: made in house; host or cells: Sf9 insect cells (baculovirus)
# Sequence (P54311 whole entry L117A): as the sequence (P54311 whole entry H311A) above, with L117A, A311H counted along it
# Sequence (P63212 2-68 partner limits assumed): as the sequence (P63212 2-68 partner limits assumed) above
# test method notes: Phage ELISA, b-βγ mutant Leu117Ala
# Assay type: binding
# applied conditions: alanine-substituted Leu117, C-Terminal Interface; mean ± SD
% of Wild-Type Signal, Leu117 values by entry
Write down the numeric answer in % and omit the unit.

Sample records with % of Wild-Type Signal, Leu117:
primary_sequence="SIGKALFILGYPDYD [3.14]" test_target="Gβ1γ2 Leu117Ala (Rattus norvegicus, UniProt P54311, L117A)" unit_of_measurement=% recorded_number=2.1
primary_sequence="WCPPKLEQWYDGCA [C2]" test_target="Gβ1γ2 Leu117Ala (Rattus norvegicus, UniProt P54311, L117A)" unit_of_measurement=% recorded_number=1.5
primary_sequence="SCEKRYGIEFCT [C4]" test_target="Gβ1γ2 Leu117Ala (Rattus norvegicus, UniProt P54311, L117A)" unit_of_measurement=% recorded_number=18.4
primary_sequence="SCKRTKAQILLAPCT [C1]" test_target="Gβ1γ2 Leu117Ala (Rattus norvegicus, UniProt P54311, L117A)" unit_of_measurement=% recorded_number=5.2

Entry SCEKRLGVRSCT [C5] has what % of Wild-Type Signal, Leu117?
28.5

Entry LCSKAYLLLGQTC [2F] has what % of Wild-Type Signal, Leu117?
2.1

Entry WCPPKAMTQLGIKAC [C14] has what % of Wild-Type Signal, Leu117?
3.8

Entry SCGHGLKVQSTIGACA [3C] has what % of Wild-Type Signal, Leu117?
10
